Reference source for all entries: patent US20210332115A1

Target: T1, Homo sapiens factor Bb protein (human, UniProt P00751 260-764)
T1 construct: Bought from CompTech (A155); also called complement factor Bb; human factor Bb
T1 sequence (P00751 260-764 limits assumed): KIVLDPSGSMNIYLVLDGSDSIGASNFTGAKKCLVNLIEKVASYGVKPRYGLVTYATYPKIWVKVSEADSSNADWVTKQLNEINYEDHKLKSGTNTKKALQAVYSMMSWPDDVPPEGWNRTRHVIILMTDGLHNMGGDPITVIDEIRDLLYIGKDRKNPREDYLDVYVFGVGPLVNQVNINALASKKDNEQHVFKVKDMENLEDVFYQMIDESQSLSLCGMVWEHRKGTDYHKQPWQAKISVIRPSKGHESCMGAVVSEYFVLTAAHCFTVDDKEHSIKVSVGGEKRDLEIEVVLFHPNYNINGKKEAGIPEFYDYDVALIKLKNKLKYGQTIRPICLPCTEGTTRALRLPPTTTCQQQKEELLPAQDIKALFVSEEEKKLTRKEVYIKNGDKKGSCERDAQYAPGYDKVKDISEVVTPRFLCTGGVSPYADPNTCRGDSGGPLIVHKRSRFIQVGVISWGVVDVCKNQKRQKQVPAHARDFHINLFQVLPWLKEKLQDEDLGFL
Assay: SPR single cycle kinetics, IgG on Protein A chip, factor Bb analyte
measured attribute: kon (M⁻¹ s⁻¹)
State just the number; it will be interpreted in M⁻¹ s⁻¹.

{"binder": "VH1/Vκ2 (antibody, V domains shown) VH: EVQLVESGGGLVKPGGSLRLSCAASGFTFSNYAMSWVRQAPGKGLEWVATISNRGSYTYYPDSVKGRFTISRDNAKNSLYLQMSSLRSEDTALYYCARERPMDYWGQGTSVTVSS VL: DIVMTQSPSTLSASVGDRVTITCKASQDVGTAVAWYQQKPGQPPKLLIYWASTRHTGVPDRFTGSGSGTDFTLTISSLQAEDFAVYFCHQHSSNPLTFGQGTKLEIK", "kon (M⁻¹ s⁻¹)": 481000}

Would you kindly look at the next entry?
IN: Which measured kon value corresponds to VH1/Vκ3 (antibody, V domains shown) VH: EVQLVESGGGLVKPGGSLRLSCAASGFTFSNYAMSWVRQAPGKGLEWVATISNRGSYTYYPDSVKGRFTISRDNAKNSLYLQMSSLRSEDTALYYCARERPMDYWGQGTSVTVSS VL: DIQMTQSPSTLSASVGDRVTITCKASQDVGTAVAWYQQKPGQPPKLLIYWASTRHTGVPDRFSGSGSGTDFTLTISSLQAEDFAVYFCHQHSSNPLTFGQGTKLEIK ?
OUT: 675000
